# experimental.system: KCNQ 2/3 channels (HEK293 cells stably expressing human KCNQ2 and KCNQ3 subunits) (Homo sapiens, UniProt O43525+O43526)
# assay.explanation: KCNQ2/3 channel activation, thallium flux FLIPR assay with BTC-AM dye
# experimental.setup: HEK293 cells expressing human KCNQ2 and KCNQ3; thallium flux, FLIPR
test.readout: EC50

[
  {
    "substance.smiles": "O=C(Cc1ccc(Cl)cc1)Nn1nc(Cl)c2ccccc2c1=O",
    "measurement": "1000 to 10000 nM"
  },
  {
    "substance.smiles": "O=C(Cc1ccc(Cl)s1)Nn1nc(C(F)(F)F)c2ccccc2c1=O",
    "measurement": "500 to 1000 nM"
  },
  {
    "substance.smiles": "O=C(CC12CC3CC(CC(C3)C1)C2)Nn1nc(-c2ccccc2)c2sccc2c1=O",
    "measurement": "500 to 1000 nM"
  }
]

State the recorded EC50 for every item in the following list.
1. O=C(Cc1cc(F)cc(F)c1)Nn1nc(-c2ccccc2)c2c(c1=O)CCCC2
2. CC1(C)[C@@H]2C[C@H]1[C@H](CC(=O)Nn1nc(-c3ccc(Cl)cc3)c3ccccc3c1=O)C(F)(F)C2
3. O=C(Cc1ccc2c(c1)OCO2)Nn1nc(-c2ccc(Cl)cc2)c2ccccc2c1=O
4. O=C(Cc1cccc(OC(F)(F)F)c1)Nn1nc(-c2ccc(Cl)cc2)c2ccccc2c1=O
5. Cc1ccc(CC(=O)Nn2nc(-c3ccc(Cl)cc3)c3ccccc3c2=O)cc1

Data returned:
100 to 500 nM
500 to 1000 nM
500 to 1000 nM
500 to 1000 nM
100 to 500 nM

The measured values listed here are drawn from patent US8629143B2.
